# credit: patent US20100272750A1

Study target: HLA A0201 (human)
Assay remarks: 125I-probe competition, purified HLA
Applied conditions: remark: other sources report otherwise
Parameter measured: pIC50
Please note pIC50 is a logarithmic value: minus log10 of concentration in mol/L. Answer with that number alone.

Q: # query: pIC50 of entry ILYAHIQCL (modifications not checked) [HPV18.E1.266]
A: 7.48
